Origin of the recorded values: ChEMBL document CHEMBL5634129

- procedure-summary: Cytotoxicity in human NCI-H460 cells infected with HCoV-OC43 treated for 72 hrs by CPE inhibition assay
- Assay type: toxicity, cell-based
- test-conditions: read-out: TC50
recorded-endpoint: CC50 at 72 h (µM)
API: value field is a number in µM; no unit string.

{"columns": ["molecule", "CC50 at 72 h, µM"],
 "data": [
  ["Clc1ccc2ncnc(Nc3ccccc3Cl)c2c1", 96.2],
  ["CCOc1ccc2nc(NC(Cc3ccccc3)C(=O)OC(C)(C)C)nc(Nc3cc(C(F)(F)F)cc(C(F)(F)F)c3)c2c1 (stereo unspecified)", 38.5],
  ["Cc1ccc(Nc2ncnc3ccc(Cl)cc23)c(Cl)c1", 28.6],
  ["CCOc1ccc2nc(NC3CCCC3)nc(Nc3cc(C(F)(F)F)cc(C(F)(F)F)c3)c2c1", 12.8],
  ["COC(=O)c1cc(Cl)cc(Nc2ncnc3ccc(OC)cc23)c1", 129],
  ["COc1ccc2ncnc(Nc3ccc(F)c(Cl)c3)c2c1", 12.8]
]}

Query :: Data request, read-out CC50 at 72 h, for FC(F)(F)c1cc(Nc2ncnc3cccnc23)cc(C(F)(F)F)c1
Result :: 240
